# Subject Of Test: UniProt Q13177
# Sequence (Q13177 whole entry): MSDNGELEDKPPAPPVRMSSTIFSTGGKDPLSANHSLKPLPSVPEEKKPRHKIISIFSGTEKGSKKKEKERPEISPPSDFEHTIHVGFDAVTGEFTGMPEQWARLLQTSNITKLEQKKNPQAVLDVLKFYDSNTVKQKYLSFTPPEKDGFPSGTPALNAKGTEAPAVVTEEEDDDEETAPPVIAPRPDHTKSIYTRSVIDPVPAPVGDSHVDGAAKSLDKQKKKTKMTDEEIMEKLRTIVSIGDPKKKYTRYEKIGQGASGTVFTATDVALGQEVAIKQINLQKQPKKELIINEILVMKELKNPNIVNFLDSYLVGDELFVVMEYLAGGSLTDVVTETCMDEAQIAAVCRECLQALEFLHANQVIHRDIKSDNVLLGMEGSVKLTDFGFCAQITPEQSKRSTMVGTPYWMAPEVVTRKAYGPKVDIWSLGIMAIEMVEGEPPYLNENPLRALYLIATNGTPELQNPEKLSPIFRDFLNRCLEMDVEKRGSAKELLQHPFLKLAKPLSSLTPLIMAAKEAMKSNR
Readout Name: IC50

> print(dat)
                         compound.structure  readout.name  obs.value
1  CNc1ncc2cc(-c3cc(NC(=O)c4ccn(-c5ccc(F)cc5)n4)c(F)cc3C)c(C)nc2n1          IC50    ≥ 10 µM

====

# Subject Of Test: CRAF (Homo sapiens, UniProt P04049)
# Construct: purchased Nanosyn (contract screening)
# Sequence (P04049 whole entry): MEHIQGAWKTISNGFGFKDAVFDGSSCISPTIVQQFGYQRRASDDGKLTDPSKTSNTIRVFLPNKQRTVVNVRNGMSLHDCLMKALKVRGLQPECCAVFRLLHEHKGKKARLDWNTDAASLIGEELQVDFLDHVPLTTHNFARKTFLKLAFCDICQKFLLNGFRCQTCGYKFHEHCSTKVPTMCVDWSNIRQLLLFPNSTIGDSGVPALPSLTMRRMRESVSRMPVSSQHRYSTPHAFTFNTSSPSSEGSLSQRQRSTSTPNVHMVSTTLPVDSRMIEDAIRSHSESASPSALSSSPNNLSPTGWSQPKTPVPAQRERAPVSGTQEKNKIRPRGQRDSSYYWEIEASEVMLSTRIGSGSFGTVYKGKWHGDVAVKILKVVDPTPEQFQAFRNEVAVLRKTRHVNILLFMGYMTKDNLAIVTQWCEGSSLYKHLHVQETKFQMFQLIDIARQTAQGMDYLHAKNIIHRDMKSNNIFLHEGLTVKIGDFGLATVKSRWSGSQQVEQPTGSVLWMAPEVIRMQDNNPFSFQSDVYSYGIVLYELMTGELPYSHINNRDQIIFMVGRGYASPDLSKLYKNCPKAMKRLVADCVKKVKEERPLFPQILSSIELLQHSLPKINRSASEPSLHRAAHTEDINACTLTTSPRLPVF
# Experimental Details: Kinase panel enzymatic inhibition assay (Nanosyn)
# Assay type: biochemical
# Condition Set: compound 5 μM; ATP at Km; 30-minute pre-incubation
Readout Name: inhibition at 5 µM

> print(dat)
                                   compound  obs.value
1  CNC(=O)c1cc(Oc2ccc(NC(=O)c3cc(S(C)(=O)=O)n(-c4ccc(F)cc4)n3)c(F)c2)ccn1      < 79%
2  Cc1ccc(NC(=O)c2cc(S(C)(=O)=O)n(-c3ccc(F)cc3)n2)cc1Nc1ccc2ncn(C)c(=O)c2c1      ≥ 95%
3  Cc1ccc(NC(=O)c2cc(S(C)(=O)=O)n(-c3ccc(F)cc3)n2)cc1-c1cc(N2CCOCC2)c(=O)n(C)c1      ≥ 95%
4  Cc1ccc(NC(=O)c2cc(S(C)(=O)=O)n(-c3ccc(F)cc3)n2)cc1-c1cc(OCCO)nc(N2CCOCC2)c1      ≥ 95%
5  CCOC(=O)Nc1cn2nc(Nc3cc(NC(=O)c4cc(S(C)(=O)=O)n(-c5ccc(F)cc5)n4)ccc3C)ccc2n1      ≥ 95%
6  Cc1ccc(NC(=O)c2cc([S+](C)[O-])n(-c3ccc(F)cc3)n2)cc1-c1cc(OCCO)nc(N2CCOCC2)c1 (stereo not shown)      ≥ 95%
7  Cc1ccc(NC(=O)c2cc([S+](C)[O-])n(-c3ccc(F)cc3)n2)cc1-c1cc(N2CCOCC2)c(=O)n(C)c1 (stereo not shown)      ≥ 95%

====

# Subject Of Test: LCK (Homo sapiens)
# Construct: purchased Nanosyn (contract screening)
# Sequence (P06239 whole entry): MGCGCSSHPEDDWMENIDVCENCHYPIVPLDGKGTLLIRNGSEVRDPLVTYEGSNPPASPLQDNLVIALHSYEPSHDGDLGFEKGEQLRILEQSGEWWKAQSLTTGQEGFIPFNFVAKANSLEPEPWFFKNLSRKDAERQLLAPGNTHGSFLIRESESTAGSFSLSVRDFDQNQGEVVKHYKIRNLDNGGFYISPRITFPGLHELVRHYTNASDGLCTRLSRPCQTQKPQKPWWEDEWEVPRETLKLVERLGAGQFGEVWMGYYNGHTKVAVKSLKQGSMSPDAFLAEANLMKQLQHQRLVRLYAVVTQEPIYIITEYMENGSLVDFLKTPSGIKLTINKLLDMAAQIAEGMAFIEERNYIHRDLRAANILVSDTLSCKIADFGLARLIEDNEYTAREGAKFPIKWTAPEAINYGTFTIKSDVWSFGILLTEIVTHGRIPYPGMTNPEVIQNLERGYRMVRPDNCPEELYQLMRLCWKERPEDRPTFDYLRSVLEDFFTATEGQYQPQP
# Experimental Details: Kinase panel enzymatic inhibition assay (Nanosyn)
# Assay type: biochemical
# Condition Set: compound 5 μM; ATP at Km; 30-minute pre-incubation
Catalogue of compounds with associated inhibition at 5 µM
Readout Name: inhibition at 5 µM

> print(dat)
                                    compound     subject.of.test  obs.value
 1  Cc1ccc(NC(=O)c2cc([S+](C)[O-])n(-c3ccc(F)cc3)n2)cc1-c1cc(OCCO)nc(N2CCOCC2)c1 (centres unmarked)  LCK (Homo sapiens)      < 79%
 2  CNC(=O)c1cc(Oc2ccc(NC(=O)c3cc(S(C)(=O)=O)n(-c4ccc(F)cc4)n3)c(F)c2)ccn1  LCK (Homo sapiens)      < 79%
 3  Cc1ccc(NC(=O)c2cc(S(C)(=O)=O)n(-c3ccc(F)cc3)n2)cc1Nc1ccc2ncn(C)c(=O)c2c1  LCK (Homo sapiens)      < 79%
 4  Cc1ccc(NC(=O)c2cc([S+](C)[O-])n(-c3ccc(F)cc3)n2)cc1Nc1ccc2ncn(C)c(=O)c2c1 (centres unmarked)  LCK (Homo sapiens)  90 to 94%
 5  Cc1ccc(NC(=O)c2cc(S(C)(=O)=O)n(-c3ccc(F)cc3)n2)cc1-c1cc(N2CCOCC2)c(=O)n(C)c1  LCK (Homo sapiens)      < 79%
 6  Cc1ccc(NC(=O)c2cc([S+](C)[O-])n(-c3ccc(F)cc3)n2)cc1C#Cc1cnc2cccnn12 (centres unmarked)  LCK (Homo sapiens)      ≥ 95%
 7  CCOC(=O)Nc1cn2nc(Nc3cc(NC(=O)c4cc([S+](C)[O-])n(-c5ccc(F)cc5)n4)ccc3C)ccc2n1 (centres unmarked)  LCK (Homo sapiens)      ≥ 95%
 8  Cc1ccc(NC(=O)c2cc(S(C)(=O)=O)n(-c3ccc(F)cc3)n2)cc1-c1cc(OCCO)nc(N2CCOCC2)c1  LCK (Homo sapiens)      < 79%
 9  Cc1ccc(NC(=O)c2cc([S+](C)[O-])n(-c3ccc(F)cc3)n2)cc1-c1cc(N2CCOCC2)c(=O)n(C)c1 (centres unmarked)  LCK (Homo sapiens)      < 79%
10  CNC(=O)c1cc(Oc2ccc(F)c(NC(=O)c3cc([S+](C)[O-])n(-c4ccc(F)cc4)n3)c2)ccn1 (centres unmarked)  LCK (Homo sapiens)      < 79%
11  Cc1ccc(NC(=O)c2cc(S(C)(=O)=O)n(-c3ccc(F)cc3)n2)cc1Nc1nccc(-c2cccnc2N)n1  LCK (Homo sapiens)  90 to 94%
12  CCOC(=O)Nc1cn2nc(Nc3cc(NC(=O)c4cc(S(C)(=O)=O)n(-c5ccc(F)cc5)n4)ccc3C)ccc2n1  LCK (Homo sapiens)      ≥ 95%
13  Cc1ccc(NC(=O)c2cc(S(C)(=O)=O)n(-c3ccc(F)cc3)n2)cc1C#Cc1cnc2cccnn12  LCK (Homo sapiens)      ≥ 95%
14  CSc1cc(C(=O)Nc2cc(Oc3ccnc(C(=O)NC4CNC4)c3)ccc2F)nn1-c1ccc(F)cc1  LCK (Homo sapiens)      < 79%
